I'd be grateful if you could share measured IC50 for these entries.
Target: Bile acid receptor (Homo sapiens)
Sequence (Q96RI1 whole entry): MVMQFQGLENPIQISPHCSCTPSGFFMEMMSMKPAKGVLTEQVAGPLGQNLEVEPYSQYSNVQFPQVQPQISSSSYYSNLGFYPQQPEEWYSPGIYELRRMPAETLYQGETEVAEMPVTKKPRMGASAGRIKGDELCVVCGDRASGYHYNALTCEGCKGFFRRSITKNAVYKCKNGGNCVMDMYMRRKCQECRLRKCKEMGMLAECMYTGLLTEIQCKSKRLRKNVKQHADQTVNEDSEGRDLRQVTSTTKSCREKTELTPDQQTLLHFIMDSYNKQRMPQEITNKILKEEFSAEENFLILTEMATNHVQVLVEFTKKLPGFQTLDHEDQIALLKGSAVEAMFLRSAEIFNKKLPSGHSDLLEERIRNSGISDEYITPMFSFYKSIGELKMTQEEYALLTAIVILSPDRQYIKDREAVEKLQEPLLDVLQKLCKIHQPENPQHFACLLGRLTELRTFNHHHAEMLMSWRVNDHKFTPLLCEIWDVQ
Experiment: Antagonist activity at human FXR expressed in monkey CV1 cells after 24 hrs by ecdysone receptor response element-driven luciferase reporter assay
Numbers only, in µM.

CC(=O)O[C@@H]1C[C@@H]2[C@@]3(C)CCCC(C)(C)[C@@H]3CC[C@@]2(C)[C@@H]2CC=C3C(=O)O[C@@H](O)[C@@H]3[C@@]12C	60.4

Problem: Item "CO[C@@H]1OC(=O)C2=CC[C@H]3[C@]4(C)CC[C@H]5C(C)(C)CCC[C@]5(C)[C@H]4C[C@@H](O)[C@]3(C)[C@H]21" has what recorded IC50?
Solution: 24

---

biological target: Bile acid receptor (Homo sapiens, UniProt Q96RI1); assay: Antagonist activity at human FXR expressed in monkey CV1 cells after 24 hrs by ecdysone receptor response element-driven luciferase reporter assay
measurement name: IC50 (µM)
Give bare numbers, in µM.

C[C@@]1(CO)CCC[C@]2(C)[C@H]3C[C@@H](O)[C@]4(C)[C@H]5COC(=O)C5=CC[C@H]4[C@]3(C)CC[C@@H]12	2.4
CC1(C)CCC[C@]2(C)[C@H]3C[C@@H](O)[C@]4(C)[C@@H]5C(=CC[C@H]4[C@]3(C)CC[C@@H]12)C(=O)O[C@H]5O	75

Now examine the next entry.
Problem: Item "CC1(C)CCC[C@]2(C)[C@H]3C[C@@H](O)[C@]4(C)[C@H]5COC(=O)C5=CC[C@H]4[C@]3(C)CC[C@@H]12" has what recorded IC50?
Solution: 31.6
